# measurement target: Nonstructural protein 5A (Hepatitis C virus) (UniProt Q5L478)
# Sequence (whole entry): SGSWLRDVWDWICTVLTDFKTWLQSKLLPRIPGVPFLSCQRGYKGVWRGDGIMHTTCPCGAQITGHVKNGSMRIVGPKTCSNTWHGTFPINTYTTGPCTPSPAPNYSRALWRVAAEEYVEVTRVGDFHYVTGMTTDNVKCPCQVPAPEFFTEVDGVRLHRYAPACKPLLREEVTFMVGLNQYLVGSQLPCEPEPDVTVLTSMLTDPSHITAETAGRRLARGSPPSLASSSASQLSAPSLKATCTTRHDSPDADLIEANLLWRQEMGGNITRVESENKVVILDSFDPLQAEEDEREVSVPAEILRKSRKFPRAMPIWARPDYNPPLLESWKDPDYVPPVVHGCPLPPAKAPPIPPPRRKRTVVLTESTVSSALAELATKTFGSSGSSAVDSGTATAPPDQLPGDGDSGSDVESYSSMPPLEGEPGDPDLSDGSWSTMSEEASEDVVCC
# assay notes: Inhibition of NS5A L31M mutant in HCV genotype 2b infected in HuH7 replicon cells assessed as decrease in viral replication after 3 days by RT-PCR method
# Assay type: cell-based
# condition set: Hepatitis C virus subtype 2b
endpoint label: EC90 (pM)

molecule	endpoint label	endpoint value
COC(=O)N[C@H](C(=O)N1CCC[C@H]1c1ncc(-c2cc(F)c3c(c2)O[C@@H](c2ccc(C4CC4)s2)n2c-3cc3cc(-c4cnc([C@@H]5CCCN5C(=O)[C@@H](NC(=O)OC)C5CCOC6(CC6)C5)[nH]4)ccc32)[nH]1)C(C)C (some centres not stated)	EC90	36
COC(=O)N[C@H](C(=O)N1CCC[C@H]1c1ncc(-c2cc(F)c3c(c2)O[C@@H](c2ccc(C4CC4)s2)n2c-3cc3cc(-c4cnc([C@@H]5CCCN5C(=O)[C@@H](NC(=O)OC)[C@H]5CCOC(C)(C)C5)[nH]4)ccc32)[nH]1)C(C)C	EC90	27
